- Measurement description: yeast display, Sf9 membrane polyspecificity reagent, FACS + sequencing; frameworks hold sequencing errors
Outcome measure: polyreactivity (PSR sort gate)

[[record]]
biopolymer_sequence = "QVQLVESGGGLVQAGGSLRLSCAASGITFRTNAMGSSRQAPGKERELVAAITTNGGNTYYADSVKGRFTISRDNAKNTVYLQMNSLKPEDTAVYYCNTATYVDSFPDPGDHWGQGTQVTVSS"
outcome_measure = "polyreactivity (PSR sort gate)"
readout_value = "low polyreactivity"

[[record]]
biopolymer_sequence = "QVQLVESGGGLVQAGGSLRLSCAASGSTFAYNAMGWYRQAPGKERELVAAITRSGGSTYYADSVKGRFTISRDNAKNTVYLQKNSLKPEDTAVYYCNKASGGYYVTSLYAYRYYYWGQGTQVTVSS"
outcome_measure = "polyreactivity (PSR sort gate)"
readout_value = "high polyreactivity"

[[record]]
biopolymer_sequence = "QVQLVESGGGLVQAGGSLRLSCAASGSIFYIYAMGWYRQAPGKERELVAAINWSGGDTYYADSVKGRFTISRDNAKNTVYLQMNSLKPEDTAVYYCAALLDSEYEYWGQGTQVTVSS"
outcome_measure = "polyreactivity (PSR sort gate)"
readout_value = "high polyreactivity"

[[record]]
biopolymer_sequence = "QVQLVESGGGLVQAGGILRLSCAASGFIFDSYAMGWYRQAPGKERELVAAINWNGGRTYYADSVKGRFTISRDNAKNTVYLQMNRLKPEDTAVYYCAKDTDNWDVGGYVYDYDYWGQGTQVTVSS"
outcome_measure = "polyreactivity (PSR sort gate)"
readout_value = "high polyreactivity"

[[record]]
biopolymer_sequence = "QVQLVESGAGLVQAGGSLLLSCAASGYIFDVYDMGWYRQAPGKERELVAAITDYADSVKGRFTISRDNAKNTVYLQMNSQKPEDTAVYYCAADTDVLKGTTGFEYWGQGTQVTVSS"
outcome_measure = "polyreactivity (PSR sort gate)"
readout_value = "low polyreactivity"

[[record]]
biopolymer_sequence = "QVQLVESGGGLVQAGGSLRLSCAASGIMFFYYAMGWYRQAPGKERELVAAISNSDTSTSYADSVKGRFTISRDNAKNSVYFQMNSLKPEDTAVYYCNADSPSLSGDYWGQGTQVTVSS"
outcome_measure = "polyreactivity (PSR sort gate)"
readout_value = "low polyreactivity"

[[record]]
biopolymer_sequence = "QVQLVESGGGLVQAGGSLRLSCAASGRIFFYNDMGCYRQAPGKERELVASISSGTSTYYADSVKGRFTISRDNAKNTVYLQMNSLKPEDTAVYYCATGRPWHYSSATYDYWGQGTQVTVSS"
outcome_measure = "polyreactivity (PSR sort gate)"
readout_value = "low polyreactivity"

[[record]]
biopolymer_sequence = "QVQLVESGGGLFQAGGSLRLSCAASGSIFFENAMGWYRQAPGKEREFVAASTWSAGGRTDYADSVKGRFTISRDNAKTTVYLQMNSLKPEDTAVYYCARYPTNILYIPVRGYTDMDYWGQGTQVTVSW"
outcome_measure = "polyreactivity (PSR sort gate)"
readout_value = "low polyreactivity"

[[record]]
biopolymer_sequence = "QVQLQESGDGLVQAVGSLRLSCAASGYISGYYYMGWYRQAPGKERELVAGIDAFGSSTNYADCVKGRFTISRDNAKNTVYLQMNSLKPEDTAVYYCAARPDGYRLFSYWGQGTQVTVSS"
outcome_measure = "polyreactivity (PSR sort gate)"
readout_value = "low polyreactivity"

[[record]]
biopolymer_sequence = "QVQLVESGGGLVQAGGSLRLSCAASGLTFRSYTMGWYRQAPGKERELVAAISSGGSTYYADSVKGRFTISRDNAKHTVYLKMNSRKPEDTAVYYCAAPRGHGKYYSWGQGTQVNVSS"
outcome_measure = "polyreactivity (PSR sort gate)"
readout_value = "high polyreactivity"

[[record]]
biopolymer_sequence = "QVQLVESGGGLVQAGGSLRLSCAASGSTFAPYAMGWYRQAPGTERELVAALTTGGSTNYADYVKGRFTISRDNATNTVYLQMNSLKPEDTAVYYCNAEYGGGVDGTYKYYSEYDYWGQGTQVTVSS"
outcome_measure = "polyreactivity (PSR sort gate)"
readout_value = "low polyreactivity"

[[record]]
biopolymer_sequence = "QVQLVESGGGLVQAGGSLRLSCAASGGSFNNYAMGWYRQAPGKERELVAAITYSGVRTNYADSVKGRFTISRDNAKNTVYLQMNSLKPEDTAVYYCAADGLSNVRQMDYWGQGTQVTVSS"
outcome_measure = "polyreactivity (PSR sort gate)"
readout_value = "low polyreactivity"

[[record]]
biopolymer_sequence = "QFQLVEYGGGLFQAGGSLRLSCDASGSIFPYNDLGWYRQAPGKERELVARITNGGSTNYADSVKGRFTISRDNAKNTFYLQMNSLKPEDTAGYYCNKDGTQEFAPDGHEYWGQGTQVTVSS"
outcome_measure = "polyreactivity (PSR sort gate)"
readout_value = "low polyreactivity"

[[record]]
biopolymer_sequence = "QVQLVESGGGLVQAGGSLRLSCAASGRNISYNAMGWSRQAPGKERELVAAISWGGGSTYYADSVKGRFTISRDNAKNTVYLQMNSLKPEDTAVYYCAKGWYRIKRNDYWGQGTQVTVSS"
outcome_measure = "polyreactivity (PSR sort gate)"
readout_value = "low polyreactivity"

[[record]]
biopolymer_sequence = "QVQLVESGGGLVQAGGSLRLSCAASGSIFWGNTMGWYRQAPGKERELVAAISRSGSSTYYADSVKGRFTISRDNAKNTVYLQMNSLKPEDTAVYYCAASVPYYTGYYYNAYEYWGQGTQVTVSS"
outcome_measure = "polyreactivity (PSR sort gate)"
readout_value = "high polyreactivity"

[[record]]
biopolymer_sequence = "QVQLVESGGGLVQAGGSLRLSCAASGRIFATNAMGWSRPAPGTERELVAGISDGGGSTYYAASVKGRFTISRDNAKNTVYLQMNRLKPEDTEVYYCAARVLDWRGDIHDSEYWGQGTQVTVSS"
outcome_measure = "polyreactivity (PSR sort gate)"
readout_value = "low polyreactivity"

[[record]]
biopolymer_sequence = "QVQLVESGGGLVQAGGSLRLSCAASGSTFPFYAMGWYRQAPGKERELVAAITSGGSTYADSVKGRFTISRDNAKNTVYLQMNSLKAEVTAVYYCAASWPRWWRFGYWGQGTQVSVSS"
outcome_measure = "polyreactivity (PSR sort gate)"
readout_value = "low polyreactivity"

[[record]]
biopolymer_sequence = "QVQLVESGGGLVQAGGSLRLSCAASGITFYYYGMGWYRQATGKERELVAAISTGGNTNYADSVKGRFTISRDNAKNTVYLQMNSLKPEDTAVYYCAASFASKYEYWGQGTQVTVSS"
outcome_measure = "polyreactivity (PSR sort gate)"
readout_value = "high polyreactivity"

[[record]]
biopolymer_sequence = "QVQLVESGGGLVQAGGSLRLRCAASGFIFRLYAMGWYIQAPGKERELVASITQGGSTYYADSVKGRFTISRDNAKNTVYLLMNSLKPEDTAVNDCAATYLHVYRRRFYYWGQGTQVSVSS"
outcome_measure = "polyreactivity (PSR sort gate)"
readout_value = "high polyreactivity"

[[record]]
biopolymer_sequence = "QVQLVESGGGIVQAGGSLRLSCAASGNIFHKNAMGWYRQAPGKERELVASISWSGGSTYYADSVKGRFTISRDNAKNTVYLQMNSLKPEDTAVYYCATDAFGYPGNRYALNDYWGQGTQVTVSS"
outcome_measure = "polyreactivity (PSR sort gate)"
readout_value = "low polyreactivity"

[[record]]
biopolymer_sequence = "QVQLVESGGGLVQAGGSLRLSCAASGSTFYSYTMGWYRQAPWKERELVATISWSGSSTYYADSVKGRFTISRDNAKNTVYLQMNSLKPEDTAVYYCAAEWDESYSYRRYRHYDYWGQGTQVTVSS"
outcome_measure = "polyreactivity (PSR sort gate)"
readout_value = "low polyreactivity"

